Values were extracted from ChEMBL document CHEMBL5537136.

- test_protocol: AUC (0 to infinity) in ICR mouse at 1 mg/kg, iv measured upto 24 hrs by LC-MS/MS analysis
- Format: ADME, organism-based
- experimental_parameters: in vivo
quantity: AUC(0-inf) (ng·h/mL)
Kindly answer with a numeric value in ng·h/mL, unit omitted.

The compound `C[C@@H](C(=O)N1CCN(c2ncc(C(F)(F)F)cn2)CC1)n1cc2cccc(C(N)=O)c2n1` showed AUC(0-inf) equal to 1800

----------
- test_protocol: Half life in ICR mouse at 1 mg/kg, iv measured upto 24 hrs by LC-MS/MS analysis
- Format: ADME, organism-based
- experimental_parameters: in vivo
quantity: half-life (h)
Supply the numeric figure in h, leaving out any unit text.

Record `C[C@@H](C(=O)N1CCN(c2ncc(C(F)(F)F)cn2)CC1)n1cc2cccc(C(N)=O)c2n1` . Reported half-life: 1.22
